- Tested on: wheat (Triticum aestivum var. Lew)
- Assay: post-emergence herbicidal activity, wheat
- Type: in vivo
- Experimental conditions: 1 Kg/Ha, about fourteen days, read-out: post-emergence herbicidal activity (% control) WHT
Reported metric: activity at 1000 g/ha (%)

| Compound | Measured |
| --- | --- |
| Cn1c(C(F)(F)F)cc(=O)n(-c2ccc(Cl)c3c2CN(CC(F)(F)F)C3=O)c1=O [Compound 28] | 100 |
| CC(C)N1Cc2c(-n3c(=O)cc(C(F)(F)F)n(C)c3=O)ccc(Br)c2C1=O [Compound 81] | 100 |
| Cn1c(C(F)(F)F)cc(=O)n(-c2ccc(Cl)c3c2CN(CCF)C3=O)c1=O [Compound 78] | 100 |
| COCN1Cc2c(-n3c(=O)cc(C(F)(F)F)n(C)c3=O)ccc(Cl)c2C1=O [Compound 31] | 100 |
| COC(=O)CCN1Cc2c(-n3c(=O)cc(C(F)(F)F)n(C)c3=O)ccc(Cl)c2C1=O [Compound 26] | 70 |

---

- System: soybean (Glycine max -- var. Winchester)
- Assay: pre-emergence herbicidal activity, soybean
- Type: in vivo
- Experimental conditions: 1 kg/Ha, about fourteen days, read-out: pre-emergence herbicidal activity (% control) SOY
Recorded measurements of activity at 1000 g/ha, one per entry

| Compound | activity at 1000 g/ha [%] |
| --- | --- |
| CCCN1Cc2c(-n3c(=O)cc(C(F)(F)F)n(C)c3=O)ccc(Cl)c2C1=O [Compound 13] | 100 |
| Cn1c(C(F)(F)F)cc(=O)n(-c2ccc(Cl)c3c2CN(CC#N)C3=O)c1=O [Compound 30] | 100 |
| Cn1c(C(F)(F)F)cc(=O)n(-c2ccc(Cl)c3c2CN(CC2CC2)C3=O)c1=O [Compound 29] | 100 |
| CCCCN1Cc2c(-n3c(=O)cc(C(F)(F)F)n(C)c3=O)ccc(Cl)c2C1=O [Compound 11] | 100 |
| Cn1c(C(F)(F)F)cc(=O)n(-c2ccc(Cl)c3c2CN(Cc2ccccc2)C3=O)c1=O [Compound 10] | 80 |
| CCON1Cc2c(-n3c(=O)cc(C(F)(F)F)n(C)c3=O)ccc(Cl)c2C1=O [Compound 19] | 100 |
| C=CCn1c(C(F)(F)F)cc(=O)n(-c2ccc(Cl)c3c2CN(C(C)C)C3=O)c1=O [Compound 80] | 70 |
| C#CCN1Cc2c(-n3c(=O)cc(C(F)(F)F)n(C)c3=O)ccc(Cl)c2C1=O [Compound 8] | 100 |
| COCN1Cc2c(-n3c(=O)cc(C(F)(F)F)n(C)c3=O)ccc(Cl)c2C1=O [Compound 31] | 100 |
| Cn1c(C(F)(F)F)cc(=O)n(-c2c(Cl)cc(Cl)c3c2CN(O)C3=O)c1=O [Compound 16] | 50 |
| CCN1Cc2c(c(Cl)cc(Cl)c2-n2c(=O)cc(C(F)(F)F)n(C)c2=O)C1=O [Compound 5] | 100 |

---

Recorded measurements of activity at 1000 g/ha, one per entry
- Test system: wheat (Triticum aestivum var. Lew)
- Assay: pre-emergence herbicidal activity, wheat
- Type: in vivo
- Experimental conditions: 1 kg/Ha, about fourteen days, read-out: pre-emergence herbicidal activity (% control) WHT

| Chemical string | Study target | activity at 1000 g/ha |
| --- | --- | --- |
| Cn1c(C(F)(F)F)cc(=O)n(-c2c(Cl)cc(Cl)c3c2CN(C(C)(C)C)C3=O)c1=O | wheat (Triticum aestivum var. Lew) | 100% |
| C=CCON1Cc2c(-n3c(=O)cc(C(F)(F)F)n(C)c3=O)ccc(Cl)c2C1=O | wheat (Triticum aestivum var. Lew) | 100% |
| CN1Cc2c(-n3c(=O)cc(C(F)(F)F)n(C)c3=O)ccc(Cl)c2C1=O | wheat (Triticum aestivum var. Lew) | 100% |
| Cn1c(C(F)(F)F)cc(=O)n(-c2ccc(Cl)c3c2CN(C2CCCC2)C3=O)c1=O | wheat (Triticum aestivum var. Lew) | 80% |
| Cn1c(C(F)(F)F)cc(=O)n(-c2ccc(Cl)c3c2CN(CC#N)C3=O)c1=O | wheat (Triticum aestivum var. Lew) | 100% |
| COC(=O)CCN1Cc2c(-n3c(=O)cc(C(F)(F)F)n(C)c3=O)ccc(Cl)c2C1=O | wheat (Triticum aestivum var. Lew) | 50% |
| CCOC(=O)Cn1c(C(F)(F)F)cc(=O)n(-c2ccc(Cl)c3c2CN(C(C)C)C3=O)c1=O | wheat (Triticum aestivum var. Lew) | 0% |
| C=CCN1Cc2c(-n3c(=O)cc(C(F)(F)F)n(C)c3=O)ccc(Cl)c2C1=O | wheat (Triticum aestivum var. Lew) | 100% |
| COc1ccc(CN2Cc3c(-n4c(=O)cc(C(F)(F)F)n(C)c4=O)ccc(Cl)c3C2=O)cc1 | wheat (Triticum aestivum var. Lew) | 60% |
| COCCN1Cc2c(-n3c(=O)cc(C(F)(F)F)n(C)c3=O)ccc(Cl)c2C1=O | wheat (Triticum aestivum var. Lew) | 100% |
| C#CCN1Cc2c(-n3c(=O)cc(C(F)(F)F)n(C)c3=O)ccc(Cl)c2C1=O | wheat (Triticum aestivum var. Lew) | 100% |

---

- System: wheat (Triticum aestivum var. Lew)
- Assay: pre-emergence herbicidal activity, wheat
- Format: in vivo
- Experimental conditions: 1 kg/Ha, about fourteen days, read-out: pre-emergence herbicidal activity (% control) WHT
Recorded measurements of activity at 1000 g/ha, one per entry
Reported metric: activity at 1000 g/ha (%)

| Molecule | Reported metric | Measured |
| --- | --- | --- |
| CCON1Cc2c(-n3c(=O)cc(C(F)(F)F)n(C)c3=O)ccc(Cl)c2C1=O [Compound 19] | activity at 1000 g/ha | 100 |
| Cn1c(C(F)(F)F)cc(=O)n(-c2ccc(Cl)c3c2CN(C2CCCCC2)C3=O)c1=O [Compound 77] | activity at 1000 g/ha | 80 |
| CC(C)N1Cc2c(ccc(Cl)c2-n2c(=O)cc(C(F)(F)F)n(C)c2=O)C1=O [Compound 1] | activity at 1000 g/ha | 80 |

---

- System: Johnsongrass (Sorghum halepense)
- Assay: post-emergence herbicidal activity, johnsongrass
- Format: in vivo
- Experimental conditions: 1 Kg/Ha, about fourteen days, read-out: post-emergence herbicidal activity (% control) SORHA

| Compound | activity at 1000 g/ha [%] |
| --- | --- |
| COc1ccc(CN2Cc3c(-n4c(=O)cc(C(F)(F)F)n(C)c4=O)ccc(Cl)c3C2=O)cc1 [Compound 25] | 75 |
| CON1Cc2c(-n3c(=O)cc(C(F)(F)F)n(C)c3=O)ccc(Cl)c2C1=O [Compound 21] | 100 |
| Cn1c(C(F)(F)F)cc(=O)n(-c2ccc(Cl)c3c2CN(CC#N)C3=O)c1=O [Compound 30] | 100 |
| Cn1c(C(F)(F)F)cc(=O)n(-c2c(Cl)cc(Cl)c3c2CNC3=O)c1=O [Compound 15] | 40 |
| Cn1c(C(F)(F)F)cc(=O)n(-c2c(Cl)cc(Cl)c3c2CN(O)C3=O)c1=O [Compound 16] | 30 |

---

- System: soybean (Glycine max -- var. Winchester)
- Assay: pre-emergence herbicidal activity, soybean
- Assay type: in vivo
- Experimental conditions: 1 kg/Ha, about fourteen days, read-out: pre-emergence herbicidal activity (% control) SOY
Recorded measurements of activity at 1000 g/ha, one per entry
Reported metric: activity at 1000 g/ha (%)

| Chemical string | Study target | Reported metric | Measured |
| --- | --- | --- | --- |
| Cn1c(C(F)(F)F)cc(=O)n(-c2ccc(Cl)c3c2CN(C(C)(C)C)C3=O)c1=O | soybean (Glycine max -- var. Winchester) | activity at 1000 g/ha | 100 |
| Cn1c(C(F)(F)F)cc(=O)n(-c2ccc(Cl)c3c2CN(Cc2ccc(Cl)cc2)C3=O)c1=O | soybean (Glycine max -- var. Winchester) | activity at 1000 g/ha | 10 |
| CCOC(=O)Cn1c(C(F)(F)F)cc(=O)n(-c2ccc(Cl)c3c2CN(C(C)C)C3=O)c1=O | soybean (Glycine max -- var. Winchester) | activity at 1000 g/ha | 5 |
| CC(C)N1Cc2c(c(Cl)cc(Cl)c2N2C(=O)C3=C(CCCC3)C2=O)C1=O | soybean (Glycine max -- var. Winchester) | activity at 1000 g/ha | 70 |
| COCCN1Cc2c(-n3c(=O)cc(C(F)(F)F)n(C)c3=O)ccc(Cl)c2C1=O | soybean (Glycine max -- var. Winchester) | activity at 1000 g/ha | 100 |
| C#CCn1c(C(F)(F)F)cc(=O)n(-c2ccc(Cl)c3c2CN(C(C)C)C3=O)c1=O | soybean (Glycine max -- var. Winchester) | activity at 1000 g/ha | 100 |
| Cn1c(C(F)(F)F)cc(=O)n(-c2ccc(Cl)c3c2CN(CCF)C3=O)c1=O | soybean (Glycine max -- var. Winchester) | activity at 1000 g/ha | 100 |
| CC(C)N1Cc2c(-n3c(=O)cc(C(F)(F)F)n(N)c3=O)ccc(Cl)c2C1=O | soybean (Glycine max -- var. Winchester) | activity at 1000 g/ha | 100 |
| CC(C)N1Cc2c(-n3c(=O)cc(C(F)(F)F)n(C)c3=O)ccc(Br)c2C1=O | soybean (Glycine max -- var. Winchester) | activity at 1000 g/ha | 100 |
| Cn1c(C(F)(F)F)cc(=O)n(-c2ccc(Cl)c3c2CN(C2CCCCC2)C3=O)c1=O | soybean (Glycine max -- var. Winchester) | activity at 1000 g/ha | 100 |
| CC(C)N1Cc2c(ccc(Cl)c2-n2c(=O)cc(C(F)(F)F)n(C)c2=O)C1=O | soybean (Glycine max -- var. Winchester) | activity at 1000 g/ha | 90 |
